B1: KRT34 (parent)
chain: PTVDLNQVLNETRSQYEALVETNR

- Variants of: B1
- method.summary: protein stability index of a GFP-peptide fusion (GPS, HEK-293T) (PSI 1-6); higher = more stable;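 note: lentivirally expressed fusions sorted by FACS into six bins by GFP to DsRed ratio, PSI derived from sequencing read proportions per bin multiplied by bin number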
- details: c terminus: a fixed tail appended
Overview of reported protein stability index across a group of variants:
Answer as a number with no unit attached.

# lookup: protein stability index of `T2Y`
1.65
